Tested on: wheat (Triticum aestivum)
test_summary: Test A greenhouse herbicide test, pre- and postemergence
Assay type: in vivo
measurement_conditions: Postemergence, 125 g ai/ha; 0 to 100 scale where 0 is no effect and 100 is complete control
recorded_metric: Plant response rating, Wheat

// query Return reported Plant response rating, Wheat; argument: CCOc1ccc2oc(CC)c(-c3c(O)c(C)nn(C)c3=O)c2c1 [Compound 68]
// result 0

// query Let us now turn to Cc1ccc2oc(C)c(-c3c(O)c(C(C)C)nn(C)c3=O)c2c1 [Compound 119]
// result 0

// query Also Cc1ccc2ccccc2c1-c1c(OC(=O)OC(C)C)c(C)nn(C)c1=O [Compound 72] , if possible.
// result 20

More entries:
// query Need Plant response rating, Wheat, item Cc1nn(C)c(=O)c(-c2cccc3ccc(I)cc23)c1O [Compound 70]
// result 0

// query Then COC(=O)Oc1c(C)nn(C)c(=O)c1-c1ccc(Cl)c2ccccc12 [Compound 63] ?
// result 0

// query Please give the result for Cc1ccc2ccccc2c1-c1c(OC(=O)C(C)(C)C)c(C#N)nn(C)c1=O [Compound 128] too.
// result 0

// query CCc1ccc2ccccc2c1-c1c(OC(=O)C2CC2)c(C)nn(C)c1=O [Compound 38] ?
// result 10

// query Quick one: COC(=O)Oc1c(C)nn(C)c(=O)c1-c1ccc(Br)c2ccccc12 [Compound 145]
// result 20

// query What about CC(=O)Oc1c(Cl)nn(C)c(=O)c1-c1c(C)sc2ccc(Cl)cc12 [Compound 116] ?
// result 20

====

Each entry below carries its reported Plant response rating, Crabgrass, Large.
Test system: crabgrass, large (large crabgrass, Digitaria sanguinalis)
test_summary: Test E greenhouse herbicide test, pre- and postemergence
Type: in vivo
measurement_conditions: 62 g ai/ha, Preemergence; scale 0 to 100 (0 no effect, 100 complete control)
Would you mind answering with just the numeric figure?

// query Fill in: Plant response rating, Crabgrass, Large of `Cc1ccc2ccccc2c1-c1c(OC(=O)OC(C)C)c(C)nn(C)c1=O` is ___
// result 0

// query # repeat for `CCc1sc2ccc(C)cc2c1-c1c(O)c(C)nn(C)c1=O`
// result 0

// query Also `COC(=O)Oc1c(C)nn(C)c(=O)c1-c1c(C)sc2ccc(C)cc12` , if possible.
// result 35

// query Ok, now `CCc1sc2c(C)cc(C)cc2c1-c1c(O)c(C)nn(C)c1=O`
// result 0

New cases:
// query Look up Plant response rating, Crabgrass, Large: `Cc1ccc2ccccc2c1-c1c(O)c(I)nn(C)c1=O`
// result 25

====

Test system: sandbur (southem sandbur, Cenchrus echinatus)
test_summary: Test E greenhouse herbicide test, pre- and postemergence
Type: in vivo
measurement_conditions: Preemergence, 250 g ai/ha; visual, scale 0 no effect to 100 complete control
Below is a list of entries, each paired with its recorded Plant response rating, Sandbur value.

Here is how some molecules turned out for Plant response rating, Sandbur.
// query What Plant response rating, Sandbur value was documented for this molecule, Cc1cc(C)c2sc(C)c(-c3c(O)c(C)nn(C)c3=O)c2c1 [Compound 2] ?
// result 75

// query CCc1sc2ccc(C)cc2c1-c1c(O)c(C)nn(C)c1=O [Compound 47] ?
// result 70

// query Entry to check: Cn1nc(Br)c(O)c(-c2cccc3ccccc23)c1=O [Compound 20]
// result 75

Okay, now this molecule:
// query Any idea what Plant response rating, Sandbur was measured for Cc1ccc2ccccc2c1-c1c(O)c(I)nn(C)c1=O [Compound 29] ?
// result 90
